molecular target: Interstitial collagenase (Homo sapiens)
Sequence (P03956 whole entry): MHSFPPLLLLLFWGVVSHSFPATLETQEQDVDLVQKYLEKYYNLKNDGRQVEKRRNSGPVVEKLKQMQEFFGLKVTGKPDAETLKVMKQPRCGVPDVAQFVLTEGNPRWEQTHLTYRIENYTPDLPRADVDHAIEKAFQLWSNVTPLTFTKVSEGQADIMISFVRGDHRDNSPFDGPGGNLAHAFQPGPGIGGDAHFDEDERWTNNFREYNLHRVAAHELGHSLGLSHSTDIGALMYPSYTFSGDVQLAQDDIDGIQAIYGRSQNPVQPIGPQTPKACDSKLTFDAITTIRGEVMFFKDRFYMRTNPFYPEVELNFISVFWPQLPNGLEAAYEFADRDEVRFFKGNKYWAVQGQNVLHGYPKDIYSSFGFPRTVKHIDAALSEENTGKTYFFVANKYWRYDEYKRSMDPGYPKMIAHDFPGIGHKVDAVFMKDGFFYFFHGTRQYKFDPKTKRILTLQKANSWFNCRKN
property label: IC50 (nM)
Report only the number, with the unit nM understood.

Value wanted: IC50 (Interstitial collagenase (Homo sapiens)) of entry `CCCCCCCCC[C@H](CC(=O)NO)C(=O)N[C@H](C(=O)NC)C(C)(C)C` 375

* * *

target: UniProtKB P08254
# rule met = IC50 below 2 µM (exclusive); rule not met = IC50 at/above 2 µM

smiles code | group
CCCCCCCC[C@H](CC(=O)NO)C(=O)N[C@@H](Cc1ccccc1)C(=O)NC | rule met

# TODO verify IC50 < 2 µM strictly for this compound: `CNC(=O)[C@H](Cc1ccccc1)NC(=O)[C@H](CCCc1ccccc1)CC(=O)NO` rule met

# TODO verify IC50 < 2 µM strictly for this compound: `CCCCCCCCCCCCCC[C@H](CC(=O)O)C(=O)N[C@H](C(=O)NC)C(C)(C)C` rule not met

# TODO verify IC50 < 2 µM strictly for this compound: `CCCCCCCCC[C@H](CC(=O)O)C(=O)N[C@@H](Cc1ccccc1)C(=O)NC` rule not met

* * *

Target: Matrilysin (Homo sapiens, UniProt P09237)
Sequence (P09237 whole entry): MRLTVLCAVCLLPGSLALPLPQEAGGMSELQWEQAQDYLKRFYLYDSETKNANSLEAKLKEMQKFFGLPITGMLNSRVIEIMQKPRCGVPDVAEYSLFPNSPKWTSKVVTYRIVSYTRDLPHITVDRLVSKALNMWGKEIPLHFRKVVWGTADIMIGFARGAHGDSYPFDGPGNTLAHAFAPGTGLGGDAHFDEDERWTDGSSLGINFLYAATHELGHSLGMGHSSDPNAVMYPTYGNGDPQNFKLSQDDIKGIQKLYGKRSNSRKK
pIC50 for assorted compounds
The read-out pIC50 is expressed as -log10 of concentration in moles per litre.

Illustrative cases are given below, each with its answer.
smiles code | experimental system | pIC50
CCCCCCCCCCCCC[C@H](CC(=O)NO)C(=O)N[C@H](C(=O)NC)C(C)(C)C | Matrilysin (Homo sapiens, UniProt P09237) | 5.70
CCCCCCCC[C@H](CC(=O)O)C(=O)N[C@H](C(=O)NC)C(C)(C)C | Matrilysin (Homo sapiens, UniProt P09237) | 4.40
CNC(=O)[C@@H](NC(=O)[C@H](CCCCCCCCCCCCCCO)CC(=O)NO)C(C)(C)C | Matrilysin (Homo sapiens, UniProt P09237) | 6.30

Fill in: pIC50 of `CCCCCC[C@H](CC(=O)NO)C(=O)N[C@@H](Cc1ccccc1)C(=O)NC` is ___ 5.70

Fill in: pIC50 of `CCCCCCCCC[C@H](CC(=O)NO)C(=O)N[C@@H](Cc1ccccc1)C(=O)NC` is ___ 5.52

* * *

target: Stromelysin-1 (Homo sapiens, UniProt P08254)
Sequence (P08254 whole entry): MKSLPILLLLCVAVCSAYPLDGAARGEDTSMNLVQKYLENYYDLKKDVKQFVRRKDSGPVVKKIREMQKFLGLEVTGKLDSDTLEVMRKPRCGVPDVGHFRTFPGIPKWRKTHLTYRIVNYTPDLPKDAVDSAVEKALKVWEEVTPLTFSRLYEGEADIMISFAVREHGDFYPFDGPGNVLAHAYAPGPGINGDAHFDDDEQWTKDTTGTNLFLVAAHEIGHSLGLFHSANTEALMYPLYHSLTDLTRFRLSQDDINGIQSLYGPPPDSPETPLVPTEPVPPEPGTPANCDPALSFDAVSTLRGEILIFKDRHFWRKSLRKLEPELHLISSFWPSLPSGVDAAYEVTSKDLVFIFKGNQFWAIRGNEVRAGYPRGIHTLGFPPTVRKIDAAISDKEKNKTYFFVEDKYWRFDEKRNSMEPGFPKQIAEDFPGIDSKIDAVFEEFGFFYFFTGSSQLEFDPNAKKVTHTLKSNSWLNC
pIC50 for assorted compounds
The read-out pIC50 is expressed as -log10 of concentration in moles per litre.

Illustrative cases are given below, each with its answer.
smiles code | experimental system | recorded measurement
CCCCCCCCCCCCCCCC[C@H](CC(=O)O)C(=O)N[C@@H](Cc1ccccc1)C(=O)NC | Stromelysin-1 (Homo sapiens, UniProt P08254) | 4.30
CCCCCCCC[C@H](CC(=O)O)C(=O)N[C@@H](Cc1ccccc1)C(=O)NC | Stromelysin-1 (Homo sapiens, UniProt P08254) | 5.30
CCCCCCC[C@H](CC(=O)NO)C(=O)N[C@@H](Cc1ccccc1)C(=O)NC | Stromelysin-1 (Homo sapiens, UniProt P08254) | 7.40
CCCCCCCCCC[C@H](CC(=O)NO)C(=O)N[C@@H](Cc1ccccc1)C(=O)NC | Stromelysin-1 (Homo sapiens, UniProt P08254) | 6.00
CCCCCCCCCCCCCC[C@H](CC(=O)NO)C(=O)N[C@@H](Cc1ccccc1)C(=O)NC | Stromelysin-1 (Homo sapiens, UniProt P08254) | 7.10

Fill in: pIC50 of `CCCCCCCCCCCCCCC[C@H](CC(=O)O)C(=O)N[C@H](C(=O)NC)C(C)(C)C` is ___ 5.15

Fill in: pIC50 of `CCCCCCCCCCCCCCCC[C@H](CC(=O)NO)C(=O)N[C@@H](Cc1ccccc1)C(=O)NC` is ___ 6.52

Fill in: pIC50 of `CCCCCCCCCCCC[C@H](CC(=O)NO)C(=O)N[C@@H](Cc1ccccc1)C(=O)NC` is ___ 7.40
